These data points were gathered from patent US12662489B2.

target: MTHFD1 recombinant human enzyme (Homo sapiens, UniProt P11586); experiment: MTHFD1 inhibition assay (NAD(P)H-Glo luminescence); conditions: MTHFD1 IC50, recombinant human enzyme 200 nM, NADP, band
Sequence (P11586 2-291 limits assumed): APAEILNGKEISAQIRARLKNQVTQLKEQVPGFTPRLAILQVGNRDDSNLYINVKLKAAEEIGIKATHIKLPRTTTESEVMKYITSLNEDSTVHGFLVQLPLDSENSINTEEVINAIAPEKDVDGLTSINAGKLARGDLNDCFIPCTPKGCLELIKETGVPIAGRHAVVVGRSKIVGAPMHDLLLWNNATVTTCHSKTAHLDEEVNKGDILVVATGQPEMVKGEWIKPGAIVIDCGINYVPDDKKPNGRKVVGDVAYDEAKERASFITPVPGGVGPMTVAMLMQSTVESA
pIC50: −log10 of the molar value.
metric: pIC50

In: Tell me the measured pIC50 of "COC[C@H]1CN(c2ccc3c4c(c(=O)oc3c2C)CN(C(=O)c2ccc(C(=O)NS(=O)(=O)N3CCCC3)c(OC3CCC3)c2F)CC4)CCN1C" , please.
Out: 7.00 to 8.00

In: Then what about the compound "COC[C@H]1CN(c2cc(C)c3c4c(c(=O)oc3c2C)CN(C(=O)c2ccc(C(=O)NS(=O)(=O)C3(C)CC3)c(N3CCC[C@@H]3C)c2)CC4)CCN1C" ?
Out: 8.00 to 9.00

In: Record: "[2H]C([2H])([2H])Oc1cc(C(=O)N2CCc3c(c(=O)oc4c(C)c(N5CCN(C)[C@@H](COC)C5)cc(C)c34)C2)c(F)cc1C(=O)NS(=O)(=O)N1CCCC1"
Out: 6.00 to 7.00

###

Target: MTHFD2 recombinant human enzyme (Homo sapiens, UniProt P13995)
Sequence (P13995 36-350): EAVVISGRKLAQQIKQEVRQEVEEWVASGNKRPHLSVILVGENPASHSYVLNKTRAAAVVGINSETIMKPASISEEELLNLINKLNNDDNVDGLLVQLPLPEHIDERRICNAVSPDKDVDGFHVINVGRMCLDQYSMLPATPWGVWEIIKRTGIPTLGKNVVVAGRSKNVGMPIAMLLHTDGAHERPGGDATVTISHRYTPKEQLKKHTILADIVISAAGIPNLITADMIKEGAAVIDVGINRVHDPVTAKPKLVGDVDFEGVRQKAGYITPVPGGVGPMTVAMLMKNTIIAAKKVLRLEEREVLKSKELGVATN
Test: MTHFD2 inhibition assay (NAD(P)H-Glo luminescence)
pIC50: −log10 of the molar value.
metric: pIC50

Reference set, count: 5
COC[C@H]1CN(c2cc(C)c3c4c(c(=O)oc3c2C)CN(C(=O)c2cc(C)c(C(=O)NS(=O)(=O)N(C)C)c(N3CCCC3)c2)CC4)CCN1C [Example 106]: 7.00 to 8.00
COC[C@H]1CN(c2ccc3c4c(c(=O)oc3c2Cl)CN(C(=O)c2ccc(C(=O)NS(=O)(=O)N3CCCC3)c(O[C@@H]3C[C@@H]5C[C@@H]5C3)c2F)CC4)CCN1C [Example 62]: 7.00 to 8.00
COC[C@H]1CN(c2ccc3c4c(c(=O)oc3c2C)CN(C(=O)c2cc(Cl)c(C(=O)NS(=O)(=O)N(C)C)c(N3C5CCC3CC5)c2)CC4)CCN1C [Example 80]: 7.00 to 8.00
COC[C@H]1CN(c2ccc3c4c(c(=O)oc3c2C)CN(C(=O)c2cc(Cl)c(C(=O)NS(=O)(=O)C3(C)CC3)c(N3C5CCC3CC5)c2)CC4)CCN1C [Example 40]: 8.00 to 9.00
COC[C@H]1CN(c2cc(C)c3c4c(c(=O)oc3c2C)CN(C(=O)c2cc(OC3CCC3)cc(C(=O)NS(=O)(=O)N3CCCC3)c2)CC4)CCN1C [Example 164]: 6.00 to 7.00

In: Which pIC50 value belongs to COC[C@H]1CN(c2cc(C)c3c4c(c(=O)oc3c2C)CN(C(=O)c2ccc(C(=O)NS(=O)(=O)N3CC5CC5C3)c(OC)c2F)CC4)CCN1C (some centres unmarked) [Example 156] ?
Out: 7.00 to 8.00

In: Can you check CCOc1cc(C(=O)N2CCc3c(c(=O)oc4c(C)c(N5CCN(C)[C@@H](COC)C5)cc(C)c34)C2)c(Cl)cc1C(=O)NS(=O)(=O)N1CCCC1 [Example 330] next?
Out: 7.00 to 8.00

In: What about COC[C@H]1CN(c2cc(C)c3c4c(c(=O)oc3c2C)CN(C(=O)c2cc(OC3CC3)c(C(=O)NS(=O)(=O)N3CC5CC5C3)cc2F)CC4)CCN1C (some centres unmarked) [Example 264] ?
Out: 8.00 to 9.00

In: Now consider COC[C@H]1CN(c2ccc3c4c(c(=O)oc3c2C)CN(C(=O)c2ccc(C(=O)NS(=O)(=O)N(C)C)c(N3C5CCC3CC5)c2)CC4)CCN1C [Example 16] .
Out: 8.00 to 9.00

In: Another: COC[C@H]1CN(c2ccc3c4c(c(=O)oc3c2C)CN(C(=O)c2c(C)cc(C(=O)NS(=O)(=O)N3CCCC3)c(OC3CCC3)c2F)CC4)CCN1C [Example 140]
Out: 6.00 to 7.00

In: Next record, please: COC[C@H]1CN(c2cc(Cl)c3c4c(c(=O)oc3c2C)CN(C(=O)c2cc(OC)c(C(=O)NS(=O)(=O)N3CCCC3)cc2F)CC4)CCN1C [Example 262]
Out: 8.00 to 9.00
